- Target Or System: human 5-HT2C receptor (Homo sapiens, UniProt P28335, I156V/I160V/N158S)
- Sequence (P28335 33-458 I156V/N158S/I160V limits assumed): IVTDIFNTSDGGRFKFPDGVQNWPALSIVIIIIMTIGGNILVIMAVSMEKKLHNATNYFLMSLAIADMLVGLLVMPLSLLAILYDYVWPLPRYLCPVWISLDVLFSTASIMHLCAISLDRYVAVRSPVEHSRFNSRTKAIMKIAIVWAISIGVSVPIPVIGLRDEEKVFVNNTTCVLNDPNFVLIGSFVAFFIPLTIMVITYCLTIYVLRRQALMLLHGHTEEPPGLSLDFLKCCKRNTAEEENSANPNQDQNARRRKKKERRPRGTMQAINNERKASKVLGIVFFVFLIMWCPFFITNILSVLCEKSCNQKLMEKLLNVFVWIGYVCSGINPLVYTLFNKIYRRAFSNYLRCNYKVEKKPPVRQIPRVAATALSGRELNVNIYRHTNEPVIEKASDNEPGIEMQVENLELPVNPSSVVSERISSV
- Test Protocol: cell-based
Property Label: EC50
Remember to quote the unit after the number.

Check out these entries, answers already filled in.
COc1cccc(OCC2CN(c3c4c(nc5ccnn35)CCNCC4)C2)c1 [Example 15.20] : 26 nM
O=C(C1CN(c2c3c(nc4ccnn24)CCNCC3)C1)N1CC[C@@H](F)C1 [Example 31.205] : 116 nM
CC(=O)N1CCCN(C(=O)C2CN(c3c4c(nc5ccnn35)CCNCC4)C2)CC1 [Example 37.102] : 67 nM
c1ccc(Cn2c(C3CN(c4c5c(nc6ccnn46)CCNCC5)C3)nc3ccccc32)cc1 [Example 34.28] : 188 nM
Cn1c(C2CN(c3c4c(nc5ccnn35)CCNCC4)C2)nc2cc(F)ccc21 [Example 34.38] : 290 nM
C[C@H](NC(=O)C1CN(c2c3c(nc4ccnn24)CCNCC3)C1)C1CCCCC1 [Example 31.189] : 315 nM

Required: EC50, one value per molecule below.
1. CN(C)CCCNC(=O)C1CN(c2c3c(nc4ccnn24)CCN(C)CC3)C1 [Example 36.53]
2. CO[C@H]1CCN(C(=O)C2CN(c3c4c(nc5ccnn35)CCN(C)CC4)C2)C1 [Example 36.41]
3. Cc1cccc(OC2CN(c3c4c(nc5ccnn35)CCNCC4)C2)c1 [Example 35.51]
4. Clc1ccc(OC2CN(c3c4c(nc5ccnn35)CCNCC4)C2)cc1 [Example 35]
5. O=C(C1CN(c2c3c(nc4ccnn24)CCNCC3)C1)N1CCC(CCc2ccccc2)C1 (stereo not drawn) [Example 31.99]
6. c1ccc(C2OCCN(c3c4c(nc5ccnn35)CCNCC4)C2c2ccccc2)cc1 (stereo not drawn) [Example 1.40]

["87 nM", "337 nM", "126 nM", "141 nM", "64 nM", "1290 nM"]

---

- Target Or System: human 5-HT2C receptor (Homo sapiens, UniProt P28335, I156V/I160V/N158S)
- Test Protocol: cell-based
Property Label: EC50 (µM)
One number for each entry, in µM.

Check out these entries, answers already filled in.
O=C(C1CN(c2c3c(nc4ccnn24)CCNCC3)C1)N1CCCC2(CCCc3ccccc32)C1 (stereo not shown) : 0.765
CN(Cc1cc(Cl)cc(Cl)c1)C(=O)C1CN(c2c3c(nc4ccnn24)CCNCC3)C1 : 0.072
Fc1cc(F)c2nc(C3CN(c4c5c(nc6ccnn46)CCNCC5)C3)[nH]c2c1 : 0.136

Now for another entry.
Quick check: EC50 of CN(CCC1CCCCC1)C(=O)C1CN(c2c3c(nc4ccnn24)CCNCC3)C1 ?
0.126

---

- Target Or System: human 5-HT2C receptor (Homo sapiens, UniProt P28335, I156V/I160V/N158S)
- Test Protocol: cell-based
Property Label: pEC50
One number for each entry, as −log10 of the molar value.

O=C(C1CN(c2c3c(nc4ccnn24)CCNCC3)C1)N1CC=C(c2ccccc2)CC1 : 7.08

Required: pEC50, one value per molecule below.
1. CN1CCc2nc3ccnn3c(N3CC(C(=O)N4CCNCC4)C3)c2CC1
2. c1ccc2oc(C3CN(c4c5c(nc6ccnn46)CCNCC5)C3)nc2c1
3. Fc1ccc(C(F)(F)F)cc1OC1CN(c2c3c(nc4ccnn24)CCNCC3)C1
4. CN(Cc1cccs1)C(=O)C1CN(c2c3c(nc4ccnn24)CCNCC3)C1
5. CC1CCCN(C(=O)C2CN(c3c4c(nc5ccnn35)CCNCC4)C2)C1 (centres unmarked)
6. CN1CCc2nc3ccnn3c(N3CC(C(=O)N4CCC(F)(F)CC4)C3)c2CC1
7. O=C(C1CN(c2c3c(nc4ccnn24)CCNCC3)C1)N1CCC2(CCOC2)CC1

6.54
6.17
7.05
7.46
7.05
6.91
7.43

Required: pEC50, one value per molecule below.
1. CNC1CCN(C(=O)C2CN(c3c4c(nc5ccnn35)CCNCC4)C2)C1 (centres unmarked)
2. COc1ccc(OC2CN(c3c4c(nc5c(C)cnn35)CCNCC4)C2)cc1
3. Cc1ccc(C2CCN(C(=O)C3CN(c4c5c(nc6ccnn46)CCNCC5)C3)CC2)cc1
4. CN(Cc1ccccc1Cl)C(=O)C1CN(c2c3c(nc4ccnn24)CCNCC3)C1
5. O=C(C1CN(c2c3c(nc4ccnn24)CCNCC3)C1)N1CCCC1c1nccs1 (centres unmarked)
6. CC(C)C1CCN(C(=O)C2CN(c3c4c(nc5ccnn35)CCN(C)CC4)C2)CC1
7. CC1CNCCc2c1nc1c(Br)cnn1c2N1CCC1 (centres unmarked)
8. O=C(C1CN(c2c3c(nc4ccnn24)CCNCC3)C1)N1CCN(c2ccccc2F)CC1

1: 8.70; 2: 7.26; 3: 7.18; 4: 7.17; 5: 6.70; 6: 7.20; 7: 6.17; 8: 7.92

Required: pEC50, one value per molecule below.
1. O=C(C1CN(c2c3c(nc4ccnn24)CCNCC3)C1)N1CCC2(CCC2)C1
2. COc1ccc(C(O)C2CN(c3c4c(nc5ccnn35)CCNCC4)C2)cc1 (centres unmarked)
3. CCOc1cccc(OC2CN(c3c4c(nc5ccnn35)CCNCC4)C2)c1
4. CN(Cc1cccc2ccccc12)C(=O)C1CN(c2c3c(nc4ccnn24)CCNCC3)C1
5. CC1(C)CCN(C(=O)C2CN(c3c4c(nc5ccnn35)CCNCC4)C2)C1
6. Cc1cccc2c1CCN2C(=O)C1CN(c2c3c(nc4ccnn24)CCNCC3)C1
7. CCN1CCCC1CNC(=O)C1CN(c2c3c(nc4ccnn24)CCNCC3)C1 (centres unmarked)

1. 7.37
2. 6.86
3. 7.03
4. 7.09
5. 8.10
6. 7.19
7. 7.92

---

- Target Or System: human 5-HT2C receptor (Homo sapiens, UniProt P28335, I156V/I160V/N158S)
- Test Protocol: cell-based
Kindly state EC50 for each of the entries shown.
Numbers only, in nM.

Check out these entries, answers already filled in.
O=C(C1CN(c2c3c(nc4c(Br)cnn24)CCNCC3)C1)N1CCC2(CCCCC2)C1 : 117
O=C1CCCN1c1ccc(OC2CN(c3c4c(nc5ccnn35)CCNCC4)C2)c(Cl)c1 : 115
Cc1ccc(Cl)c(OC2CN(c3c4c(nc5ccnn35)CCNCC4)C2)c1 : 114
COc1ccc(OC2CN(c3c4c(nc5ccnn35)CCNCC4)C2)c(Cl)c1 : 87
CN1CCc2nc3ccnn3c(N3CC(C(=O)N4CCN(C)CC4)C3)c2CC1 : 81

Required: EC50, one value per compound below.
1. CC1CCN(C(=O)C2CN(c3c4c(nc5ccnn35)CCNCC4)C2)C1 (stereo not shown)
2. O=C(C1CN(c2c3c(nc4ccnn24)CCNCC3)C1)N1CCC(c2ccc(Br)cc2)CC1

94
131

---

Kindly state EC50 for each of the entries shown.
- Target Or System: human 5-HT2C receptor (Homo sapiens, UniProt P28335, I156V/I160V/N158S)
- Test Protocol: cell-based
Remember to quote the unit after the number.

Check out these entries, answers already filled in.
CCCCNC(=O)C1CN(c2c3c(nc4ccnn24)CCNCC3)C1 : 91 nM
CC1(C)CN(C(=O)C2CN(c3c4c(nc5ccnn35)CCNCC4)C2)Cc2ccccc21 : 623 nM
CC(C)(C)N1CCC2(CCN(c3c4c(nc5ccnn35)CCNCC4)CC2)C1=O : 4900 nM
c1cc2c(c(OC3CN(c4c5c(nc6ccnn46)CCNCC5)C3)c1)CCCC2 : 666 nM
COc1ccc2cc(OC3CN(c4c5c(nc6ccnn46)CCNCC5)C3)ccc2c1 : 1360 nM

Required: EC50, one value per compound below.
1. N#Cc1cccc(OC2CN(c3c4c(nc5ccnn35)CCNCC4)C2)c1
2. O=C(C1CN(c2c3c(nc4ccnn24)CCNCC3)C1)N1CCC(F)CC1
3. O=C(C1CN(c2c3c(nc4ccnn24)CCNCC3)C1)N1CCCC(c2cccc(F)c2)C1 (stereo not drawn)
4. Cc1cnn2c(N3CC(C(=O)N4CCc5cc(F)ccc54)C3)c3c(nc12)CCNCC3
5. COc1ccc(CCN(C)C(=O)C2CN(c3c4c(nc5ccnn35)CCNCC4)C2)cc1

1: 81 nM; 2: 146 nM; 3: 155 nM; 4: 26 nM; 5: 274 nM

Required: EC50, one value per compound below.
1. CN(Cc1c(Cl)cccc1Cl)C(=O)C1CN(c2c3c(nc4ccnn24)CCNCC3)C1
2. C[C@@H]1CN(C(=O)C2CN(c3c4c(nc5ccnn35)CCN(C)CC4)C2)C[C@H](C)O1

458 nM
161 nM

---

Kindly state pEC50 for each of the entries shown.
- Target Or System: human 5-HT2C receptor (Homo sapiens, UniProt P28335, I156V/I160V/N158S)
- Test Protocol: cell-based
Answers are plain numbers, as −log10 of the molar value.

Check out these entries, answers already filled in.
O=C(C1CN(c2c3c(nc4ccnn24)CCNCC3)C1)N1CCN(C2CCOCC2)CC1 : 8.15
O=C(C1CN(c2c3c(nc4ccnn24)CCNCC3)C1)N1CC2CC2(c2cccs2)C1 (stereo not shown) : 7.57
COc1ccc(OC2CN(c3c4c(nc5ccnn35)CCNCC4)C2)cc1 : 7.02

Now for another entry.
Given the entry COC1CN(c2c3c(nc4ccnn24)CCNCC3)C1 , what pEC50 was observed with human 5-HT2C receptor (Homo sapiens, UniProt P28335, I156V/I160V/N158S)?
7.09

Value source: patent US20120165304A1
